Test system: K4 kissing-loop RNA reporter;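 further: bound reporter read as fluorescence of individual clusters on recovered sequencing chips by microscopy, with normalized cluster intensities fitted with a binding model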
METHOD_SUMMARY: apparent KD of K4 kissing-loop reporter; higher = weaker reporter binding
CONDITIONS: Eterna round: R107; input ligand: theophylline 20 uM
PROPERTY_NAME: apparent KD of K4 kissing-loop reporter (nM)

* UGACUGGACUGAAGGAGCGUUCAGGUAGGUCGCAUAGGAGUGAUGUUCCAAUGAAGGAGCGAGCAGGUAGGUCGCAGUCUAGUCU [ArgBS 13 #DoubleAptamer #SwitchBubble] | 205
* ACGAUUUACAGAAGGAGCGUGUAUUUAACUACAAUUAUCAUAGCGAGUGAUGUUCGUUAUACACAGGUAGGUCGCUGUAUAUCGA [JR_ExcArginiB_Sub012] | 451
* GGAGGAGAAUAUGAUACCAGCAGAGAGAGAGAGGAAGUAUAGUGAUGUUAUAUGAGAGAAUGCCCUUGGCAGCAUAAGACGCAGG [#07 K4 Theophylline B Same State] | 144
* UUGAGCCGGACUUAAGUCCGGCUCUGCGAGCGAGGACCGGUACGGCCGCCACUCGGUGCAGUGAUGUUGCAUGGCCGCAAGGCCG [#2 Exclusion - Tryptophan A Attempt #11 (HarryS)] | 231
* CGUGAAUGUCGUCAGUCAUCGGUCCAUGCACGAGGACCGGUACGGCCGCCACUCGAGCGUGGCAGUGAUGUUGCCAGCGCACUAA [KL-XTryp-A13] | 137
* UUAUCAUCAGCGGCCGCCACUGCAAAUUGGAGUGAUGUUCCAAGCGUGGAUAAUGAAAUCACUAGUAGGACCGGGUUGAUGAAUU [AK 1 Ex Trypt B] | 254
* CAUACGCAUGGAGGAUAUGAGAUUACUCAUGUCAUUUAAUAUUCUCAGUGAUGUUGAGAUUUAGGCUCAGAAGGCCAUGUGUAUG [Ex FMN B 17] | 534
* CCGUGGAGUGAUGUUCCACGUUCUACGGAUACCAGCUUUGCCAAAGGCCCUUGGCAGCCGCACCUUGCAGUGAUGUUGUGAGGCU [Same State Theophylline A Gf7] | 302
* AAGCAGUCACUCGAAUCCAUCGAAGAUGGGCGAGGACCGGUACGGCCGCCACUCGGAGUGAUGUUCCAAAGACUGCAAAAUAAAA | 550
* CCUAUCUCAUACGAUACCAGUCAAUGAUCUUUGAUCAAUGCCAUCACCGAGUGAUGUUCGGACCCUUGGCAGCGUAUGAGAUAGG [whbob_Ex_Theo_B_sa103] | 452
* CUCGAGUGAUGUUCGAUUAUUUAUACAGAUACCAGUGAAUUUUAACACCCUUGGCAGCUGGUUGUAUCAUUGUUUUUUACAAAAG [JR_ExcTheophyA_Sub007] | 195
* AGACUUCACCGAAGGAGCGACGUGGCCUAGUGAUGUUAGGCACGAGAGAAAUCUCGUAUACGUCAGGUAGGUCGCGGUGAAGUCA [Omei KL Arginine B SS C v6] | 160
* UGACUGGACUGAAGGAGCGCGCGAGACAAAGUCUCGAACUCUUAGUGAUGUUAAGAAAUAACGCAGGUAGGUCGCAGUCUAGUCU | 133
* GGACGCCGGUCGGCCGCCACUCACAGCAGCCAGUGAUGUUGGAUUGUAGCGGAGUGAUGUUCCGAGAGGACCGGGACUGCAGUCU [Same State Tryptophan B GF 11] | 114
* CAGCCCAAAUGGCGAGAAGUGUUCCUUAGUCGAGGACCGGUACGGCCGCCACUCGCUCUAAACAUUAGGAGUGAUGUUCCAUUAG | 335
* GGGUAUUACGGAGGAUAUGCACUGAGGAGGAGAAUAUAGUGAUGUUAUAUAAGAGGAAGGAGAAGAGUAGAAGGCCGUGGUAUUG [SSFMNB.H] | 277
* GUUGAUCAUGGAAGGAGCGCCCAUUGUCGACACGAGUGAUGUUCGUGUCGUUAAUUAUGAGGGCAGGUAGGUCGCCGUGUGCUUU [Soqugebi] | 115
* AAUUCAAACUGAAGGAGCGAGCAUUUUGGAGUGAUGUUCCAAGCGAGUGAUGUUCGCAUAGCUCAGGUAGGUCGCAGUUUGGAUA [Same State Arginie B GF 14] | 143
